Test system: Pseudomonas aeruginosa
Experiment: Anti-biofilm activity against Pseudomonas aeruginosa PAO1 harboring wspF gene mutation assessed as reduction on c-di-GMP level by measuring GFP fluorescence at 100 uM incubated for 24 hrs […]
Assay type: functional
Set-up: scale not given: the % may be the effect or the level left
metric: Activity
// unit must come after the numeric part

N=C1NN=C(N)/C1=N/Nc1ccc(F)cc1F ... 41%
N=C1ON=C(N)/C1=N/Nc1cc(F)ccc1F ... 0%

Input line: What value of Activity has been reported for the following compound? Cc1cccc(F)c1N/N=C1\C(=N)NN=C1N
Output line: 0%

---

Please go through the items and note down their Activity.
System: Pseudomonas aeruginosa
Assay: Anti-biofilm activity against Pseudomonas aeruginosa PAO1 harboring wspF gene mutation assessed as reduction on c-di-GMP level by measuring GFP fluorescence at 100 uM incubated for 24 hrs […]
Type: functional
Parameters: scale not given: the % may be the effect or the level left
Give bare numbers, in %.

Below are worked cases with known answers.
N=C1ONC(=O)/C1=N\Nc1ccccc1F ... 0
N=C1NN=C(N)/C1=N/Nc1cc(Br)ccc1Br ... 0
N=C1/C(=N\Nc2ccccc2F)C(N)=NN1CCO ... 0
N=C1NN=C(N)/C1=N/Nc1ccc(F)c(F)c1F ... 0
NC1=NOC(=O)/C1=N\Nc1ccccc1F ... 0
N=C1NN=C(N)/C1=N/Nc1ccc(F)cc1 ... 44

Please state Activity for every compound in the list that follows.
1. N=C1NN=C(N)/C1=N/Nc1cc(F)ccc1F
2. Cc1ccc(N/N=C2\C(=N)NN=C2N)c(F)c1
3. CC(=O)/N=C1\NN=C(NC(C)=O)\C1=N\Nc1ccccc1F
4. N=C1NN=C(N)/C1=N/Nc1cccc(F)c1F
5. N=C1ON=C(N)/C1=N/Nc1c(F)cccc1F
6. N=C1NN=C(N)/C1=N/Nc1ccncc1F

Output line:
[65, 0, 0, 48, 0, 0]

Please state Activity for every compound in the list that follows.
1. N=C1/C(=N\Nc2ccccc2F)C(N)=NN1C(=O)c1ccncc1
2. N=C1ON=C(N)/C1=N/Nc1ccccc1F
3. N=C1/C(=N\Nc2ccccc2F)C(N)=NN1c1ccc(F)cc1
4. O=C1NOC(=O)/C1=N\Nc1ccccc1F
5. N=C1NN=C(N)/C1=N/Nc1cccnc1F
6. N=C1/C(=N\Nc2ccccc2F)C(N)=NN1Cc1ccccc1
7. COc1ccccc1N/N=C1\C(=N)NN=C1N

Output line:
1. 40
2. 0
3. 0
4. 0
5. 13
6. 0
7. 0
